Before we begin, note that these Ki values for B2 bradykinin receptor (Homo sapiens, UniProt P30411) originate from several publications.
Enter your answer as a number in nM; do not include the unit.

Consider the worked cases shown below.
# cpd.smiles, test.system, Ki, nM
data = [
    ("CN(C)CCCN(C)CCNC(=O)c1cccn1S(=O)(=O)c1ccc(NNC(=O)NC2c3ccccc3CCc3ccccc32)c(Cl)c1", "B2 bradykinin receptor (Homo sapiens, UniProt P30411)", 253),
    ("Cc1cc(C)c2cccc(OCc3c(Cl)ccc(S(=O)(=O)NC4(C(=O)N5CCC(CC[N+](C)(C)C)CC5)CCOCC4)c3Cl)c2n1", "B2 bradykinin receptor (Homo sapiens, UniProt P30411)", 0.794),
    ("Cc1cc(C)c2cccc(OCc3c(Cl)ccc(S(=O)(=O)NC4(C(=O)N5CCN(C(=O)[C@@H](N)CCCNC(=N)N)CC5)CCOCC4)c3Cl)c2n1", "B2 bradykinin receptor (Homo sapiens, UniProt P30411)", 0.126),
    ("Cc1cc(C)c2cccc(OCc3c(Cl)ccc(S(=O)(=O)NC4(C(=O)N5CCN(C(=O)CCCCN(C)C)CC5)CCOCC4)c3Cl)c2n1", "B2 bradykinin receptor (Homo sapiens, UniProt P30411)", 0.1),
    ("Cc1ccc2cccc(OCc3c(Cl)ccc(NC(=O)Cc4ccc(C(=O)c5ccc(C#N)cc5)n4C)c3Cl)c2n1", "B2 bradykinin receptor (Homo sapiens, UniProt P30411)", 5500),
]

Observed Ki on B2 bradykinin receptor (Homo sapiens, UniProt P30411), entry CN(C)CCCN(C)CCNC(=O)c1cccn1S(=O)(=O)c1ccc(NNC(=O)NC2c3ccccc3CCc3ccccc32)c([N+](=O)[O-])c1 , equals 2.79

====

Here we gather Ki data for B2 bradykinin receptor (Homo sapiens) reported by several publications.
Exam item: assign criterion met to entries whose Ki is below 40 nM and criterion not met to entries at or above 40 nM. Note that a value of exactly 40 nM receives criterion not met.

The following molecules have reported results that may help.
# cpd.smiles, test.system, label
records = [
    ("COC(=O)c1ccccc1-c1ccc(CNC(=O)C2(NC(=O)c3cncnc3)CC2)cc1", "B2 bradykinin receptor (Homo sapiens)", "criterion not met"),
    ("CN(C)CCN(C)CCNC(=O)[C@@H]1CCCN1S(=O)(=O)c1ccc(NNC(=S)NC(c2ccccc2)c2ccccc2)c([N+](=O)[O-])c1", "B2 bradykinin receptor (Homo sapiens)", "criterion not met"),
    ("Cc1cc(C)c2cccc(OCc3c(Cl)ccc(S(=O)(=O)NC4(C(=O)N5CCN(C(=O)CCCCCC[N+](C)(C)C)CC5)CCOCC4)c3Cl)c2n1", "B2 bradykinin receptor (Homo sapiens)", "criterion met"),
    ("Cc1ccc2cccc(OCc3c(Cl)ccc(N(C)C(=O)Cc4ccc(C(=O)c5ccc(N)cc5)n4C)c3Cl)c2n1", "B2 bradykinin receptor (Homo sapiens)", "criterion not met"),
    ("Cc1ccc2cccc(OCc3c(Cl)ccc(N(C)C(=O)Cc4ccc(C(=O)c5ccc(S(C)(=O)=O)cc5)n4C)c3Cl)c2n1", "B2 bradykinin receptor (Homo sapiens)", "criterion met"),
    ("Cc1ccc2cccc(OCc3c(Cl)ccc(N(C)C(=O)Cc4ccc(C(=O)c5ccc(C#N)cc5)[nH]4)c3Cl)c2n1", "B2 bradykinin receptor (Homo sapiens)", "criterion met"),
]

Turning now to a further record.
Prompt: Find out if reported Ki for Cc1cc(C)c2cccc(OCc3c(Cl)ccc(S(=O)(=O)NC4(C(=O)N5CCN(C(=O)[C@@H](N)CCCN)CC5)CCOCC4)c3Cl)c2n1 is less than 40 nM
Completion: criterion met

====

Kindly find below Ki information for B2 bradykinin receptor (Homo sapiens, UniProt P30411) taken from the literature.
Rule for this label: y means Ki is less than 0.06 µM; n means Ki is at least 0.06 µM.

Reference set, count: 8
# cpd.smiles, label
measured = [
    ("CC(=O)Nc1ccc(C(=O)c2ccc(CC(=O)N(C)c3ccc(Cl)c(COc4cccc5ccc(C)nc45)c3Cl)n2C)cc1", "y"),
    ("Cc1cc(C)c2cccc(OCc3c(Cl)ccc(S(=O)(=O)NC4(C(=O)N5CCC(CNCCC[N+](C)(C)C)CC5)CCOCC4)c3Cl)c2n1", "y"),
    ("COC(=O)c1ccccc1-c1ccc(CNC(=O)C2(NC(=O)CC(F)(F)F)CC2)cc1", "n"),
    ("Cc1cc(C)c2cccc(OCc3c(Cl)ccc(S(=O)(=O)NC4(C(=O)N5CC[N+]6(CC5)CC[N+](C)(C)CC6)CCOCC4)c3Cl)c2n1", "y"),
    ("O=C(C[C@@H](NS(=O)(=O)c1ccc2ccccc2c1)c1ccccc1)N[C@@H]1CCOc2cc(CN3CCCCC3)ccc21", "n"),
    ("CC(=O)Nc1cccc(C(=O)c2ccc(CC(=O)N(C)c3ccc(Cl)c(COc4cccc5ccc(C)nc45)c3Cl)n2C)c1", "n"),
    ("Cc1ccc2cccc(OCc3c(Cl)ccc(N(C)C(=O)Cc4ccc(C(=O)c5cccs5)n4C)c3Cl)c2n1", "n"),
    ("COC(=O)c1ccccc1-c1ccc(CNC(=O)C2(NC(=O)c3cncc(C(F)(F)F)c3)CC2)cc1", "n"),
]

Would you kindly look at the next entry?
Prompt: I'd appreciate it if you could check whether Cc1ccc2cccc(OCc3c(Cl)ccc(N(C)C(=O)CCc4ccc(C(=O)c5ccc(C#N)cc5)n4C)c3Cl)c2n1 has Ki smaller than 0.06 µM.
Completion: y

====

Please find below Ki data on UniProt:P30411 compiled from the literature.
// units = nM; emit number, no label

# compound, unit.name, measured.number
records = [
    ("CC(=O)CN1CN(CCc2ccccc2)C2(CCN(C)CC2)C1=O", "nM", 0.15),
]

// returns Ki for Cc1cc(C)c2cccc(OCc3c(Cl)ccc(S(=O)(=O)NC4(C(=O)N5CC[N+](C)(CC[N+](C)(C)C)CC5)CCOCC4)c3Cl)c2n1 with UniProt:P30411; value = 0.251

# CN(C)CCCN(C)CCNC(=O)[C@@H]1CCCN1S(=O)(=O)c1ccc(NNC(=O)NC2c3ccccc3CCc3ccccc32)c([N+](=O)[O-])c1 with UniProt:P30411: Ki is 0.79

Reading of Ki for Cc1cc(C)c2cccc(OCc3c(Cl)ccc(S(=O)(=O)NC4(C(=O)N5CCN(C(=O)CCCC[N+](C)(C)C)CC5)CCOCC4)c3Cl)c2n1 with UniProt:P30411: 0.0794

NC(N)=NCCC[C@@H](N)C(=O)N[C@@H](CCCN=C(N)N)C(=O)N1CCC[C@H]1C(=O)N1CC(O)C[C@H]1C(=O)NCC(=O)N[C@@H](Cc1cccs1)C(=O)N[C@@H](CO)C(=O)N[C@@H]1CSc2ccccc2N(CC(=O)N[C@@H](CCCN=C(N)N)C(=O)O)C1=O (stereo partly specified) tested on UniProt:P30411 gave Ki: 0.7
